# assay: Toxicity liver stage against HepG2, at 10uM
# Type: cell-based
# Parameters: test concentration 10 uM, cell line HepG2-A16-CD81EGFP
# assay.setup: human, HepG2-A16-CD81EGFP cells; read-out: INHIBITION
Reported cytotoxicity at 10 µM values are given for each entry in this list.
Reply with just the number (in %).

Recorded results for 4 molecules are shown here.
• O=C1CC(c2ccc(C(=O)O)cc2)c2ncn(-c3ccc(Cl)cc3)c2N1 (stereo not given) = -2.14
• Cn1cc(Br)cc1C(=O)NCC(C)(O)c1ccsc1 (stereo not given) = -49
• Cc1ccc(C(C)NC(=O)CNCCn2cccn2)cc1C (stereo not given) = -6.63
• COc1c(C2CCCN2C(=O)c2cc(C)on2)c(C)nn1C (stereo not given) = 0.407

*Q* Which measured cytotoxicity at 10 µM value corresponds to CC(C)c1nc(CSc2nnc(-c3cccs3)n2CC(N)=O)no1 ?
*A* -142

*Q* Which measured cytotoxicity at 10 µM value corresponds to CC(c1ccon1)N(C)C(=O)C1CCN(C(=O)C2CC2)CC1 (stereo not given) ?
*A* -2.71

*Q* Which measured cytotoxicity at 10 µM value corresponds to CC(=O)N1[C@H](Cn2cncn2)C[C@@H]2CN(S(C)(=O)=O)CC[C@@H]21 ?
*A* -10.9

*Q* Which measured cytotoxicity at 10 µM value corresponds to CC(NC(=O)CCc1cccc(OC2CCCC2)c1)c1nncn1C (stereo not given) ?
*A* 7.2

*Q* Which measured cytotoxicity at 10 µM value corresponds to CC(Cc1cn(CCc2nc(N)cc(O)n2)nn1)c1ccccc1 (stereo not given) ?
*A* -5.58

*Q* Which measured cytotoxicity at 10 µM value corresponds to CC1CN(C)CCN1C(=O)Nc1nc(-c2cccn2C)cs1 (stereo not given) ?
*A* -2.38

*Q* Which measured cytotoxicity at 10 µM value corresponds to CCO[C@H]1COC[C@@H]1NC(=O)CCc1nc(-c2ccccc2)no1 ?
*A* 15.8

*Q* Which measured cytotoxicity at 10 µM value corresponds to CN1CCN(Cc2cn3c(n2)CN(C(=O)N2CCCC2)CC3)CC1 ?
*A* 3.23

*Q* Which measured cytotoxicity at 10 µM value corresponds to Cc1c(CN2C[C@H](O)[C@@H](N3CCOCC3)C2)[nH]c2ccc(F)cc12 ?
*A* 5.86
